Target: T1, HLA-A*0201 molecule on human T2 cells (human)
T1 construct: read out with anti-HLA-A2 antibody BB7.2-PE; also called HLA-A2
Test: T2 cells expressing HLA-A*0201, anti-HLA-A2-PE, FACS
readout.name: mean relative fluorescence intensity at 100 µM peptide

// worked examples, mean relative fluorescence intensity at 100 µM peptide included
INSERT INTO measurements (binder, result) VALUES
  ('RLSSYLVEI [FOXM1-B]', '47.5 % of HIV peptide'),
  ('LLLSAALSA (Fragment of human CHI3L1) [CHI3L1H]', '11.2 % of HIV peptide'),
  ('FMVEDETVL (Fragment of human EZH2) [EZH2-H]', '95.4 % of HIV peptide'),
  ('WLPFGFILI (Fragment of human IL13RA2) [IL13RA2-H]', '26.5 % of HIV peptide'),
  ('SMFRVLIGT (Fragment of human EZH2) [EZH2-H2]', '78.2 % of HIV peptide');

Asked: I have this binder here, FLDSLGFSL [TYMS-B2] , and I need its recorded mean relative fluorescence intensity at 100 µM peptide.
Given back: 71.3 % of HIV peptide
